Molecular target: T1, human IL-22 (human, UniProt Q9GZX6 34-179)
T1 sequence: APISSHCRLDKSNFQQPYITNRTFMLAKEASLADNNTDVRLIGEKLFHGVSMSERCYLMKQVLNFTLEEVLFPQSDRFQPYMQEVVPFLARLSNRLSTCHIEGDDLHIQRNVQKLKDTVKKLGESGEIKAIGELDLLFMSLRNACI
Experiment: cell-based or functional assay
Parameter: IC50 of scFv in BaF3-IL-22 proliferation assay. Scope: all listed entries.
Your answer should be a plain number; it is taken to be in nM.

Binder	Obs Value
166G05 scFv (non-germlined) (scFv, Optimized clone derived from GIL68) scFv: EVQLVQSGAEVKKPGASVKVSCQASGYTFSDYYIHWVRQTPGQGFEWMGWVNPDTGGTRYAQKFQGWVTMTRDMSNTTAYMELPRLRDDDTAVYYCARDLTGFDPFDIWGQGTLVTVSSGGGGSGGGGSGGGGSAQSVLTQPPSVSVAPGKTATITCGGNNFRNKRVHWYQQRPGQAPVLVIYYDSDRPSGIPERFSGSRSGNTATLTISRVEAGDEADFYCQVWDFLTDSGSFGGGTKLTVLGAAAH	0.204
097D09 scFv (non-germlined) (scFv, Optimized clone derived from GIL01) scFv: EVQLVESGGGLVTPGGSLRLSCAASGFTFSDYYMSWVRQAPGRGLEWVSAISGSGGSTYYADSVKGRITISRDNAKNSLYLQMSSLRSEDTAVYYCARGLWVWDPLDYWGRGTLVTVSSGGGGSGGGGSGGGGSDIQMTQSPSTLSASIGDRVTITCRASEGIYHWLAWYQQKPGKAPKLLIYKASSLASGAPSRFSGSGFGTDFTLTISSLQPDDFATYYCQQYSEFAWTFGGGTKLEIKRAAAH	0.298
354A08 scFv (non-germlined) (scFv, Optimized clone derived from GIL92) scFv: QVQLVQSGAEKKPGASVKVSCKASGYTFTDYYMHWVRQAPGQGLEWVGWINPYTGGAFYAQKFRGRVTMTRDTSINTAYMELSRLGSDDTAVYYCAREPERFGDSTGQVWGRGTMVTVSSGGGGSGGGGSGGSRSAQAVLTQPSSVSGAPRQRVTISCTGSSSNIGAGYGVHWYQQLPGTAPKLLIYGNSNRPSGVPDRFSGSKSGTSASLAITGLQAEDEADYYCYHWDKEQSGYVFGTGTQLTVLSA	0.219
375G06 scFv (non-germlined) (scFv, Optimized clone derived from GIL68) scFv: EVQLVQSGAEVKKPGASVKVSCQASGYTFSDYYIHWVRQTPGQGFEWMGWVNPDTGGTRYAQKFQGWVTMTRDMSNTTAYMELPRLRDDDTAVYYCARDLTGYDYYDRWGQGTLVTVSSGGGGSGGGGSGGGGGGSGGGGGGSGGGGSAQSVLTQPPSMSVAPGKTATITCGGNNFRNKRVHWYQQRPGQAPVLVIYYDSDRPSGIPERFSGSRSGNTATLTISRVEAGDEADFYCQVWDFLADEAMFGGGTKLTVLGAAAH	0.118

IN: Data request, read-out IC50 of scFv in BaF3-IL-22 proliferation assay, for 355B06 scFv (non-germlined) (scFv, Optimized clone derived from GIL92) scFv: EVQLVQSGAEVKKPGASVKVSCQASGYTFTDYYMHWVRQAPGQGLEWVGWINPYTGSAFYAQKFRGRATMTRNTSINTAYMELSRLGSDDTAVYYCAREPEKFGESSGQLWGRGTMVTISSGGGGSGGGGSGGSGSAQAVLTQPSSVSGAPGQRVTISCTGSSSNIGPGYGVHWYQQLPGTAPKLLIYGDSNRPSGVPDRFSGSKSGTSASLAITGLQAEDEADYYCQSYDSGLSGYVFGTGTQLTVLSA
OUT: 0.183

Origin of measurements: patent US20070243589A1
